# Test system: HCC827
# run-description: Cytotoxicity assay
# Assay type: cell-based
# measurement-setup: HCC827, 48 h, single agent; no unit printed in Table 3 (b74 gives μM)
reported-endpoint: IC50 (µM)
Express your answer in µM, writing the number without its unit.

Measured IC50 of COC(=O)[C@@]1(C)CC[C@]2(C)CC[C@]3(C)C(=CC(=O)[C@@H]4[C@@]5(C)C=C(C#N)C(=O)C(C)(C)[C@@H]5CC[C@]43C)[C@@H]2C1 [CDODA-Me] : 4.5
